# PROTOCOL_DESCRIPTION: qHTS assay to identify small molecule agonists of the hypoxia (HIF-1) signaling pathway (AID 1224846); further: on the % scale 0 is the no-effect control and ±100 the full control effect
# EXPERIMENTAL_PARAMETERS: HRE-bla ME-180 cells, beta-lactamase ratio, 17 h; series mostly up to 76.8 µM
Records with an inconclusive call do not appear. The source made the active and inactive calls. The call rests on the fitted dose curve; in most records, active means well fitted activation curve with a large enough effect in the signal ratio in the repeat runs (not every such curve was filed as active); inconclusive means weak or mixed curves; inactive means flat fitted curve, though single readings scatter; the % refers to the signal ratio.
MEASUREMENT_LABEL: activation

INSERT INTO measurements (molecule, recorded_result) VALUES
  ('CC(C)OCC1CO1 (stereo unspecified)', 'inactive'),
  ('CC1CC(=O)NN=C1c1ccc(NCC(C)(C)NCC(O)COc2cc(Cl)ccc2C#N)cc1 (stereo unspecified)', 'inactive'),
  ('CC(C)c1nnc2ccc(-c3ocnc3-c3cc(F)ccc3F)cn12', 'inactive'),
  ('O=C(O)c1cccc(O)c1', 'inactive'),
  ('Brc1cc(-c2ccc(Br)c(Br)c2Br)cc(Br)c1Br', 'inactive'),
  ('C=CCCCCCCCCCCCCCCCC', '0.0723% [at 7.01 µM] (inactive)'),
  ('O=[N+]([O-])c1cccc(S(=O)(=O)NCCNS(=O)(=O)c2cccc([N+](=O)[O-])c2)c1', 'inactive'),
  ('Nc1nc(Cl)nc2c1ncn2[C@@H]1O[C@H](CO)[C@@H](O)[C@@H]1F', 'inactive'),
  ('COC(=O)c1cc(Cl)ccc1NS(=O)(=O)C(F)(F)F', 'inactive'),
  ('CC1=CC(O)CC(C)(C)C1 (stereo unspecified)', 'inactive'),
  ('CCC(C)(O)CCC=C(C)C (stereo unspecified)', 'inactive'),
  ('Cc1ccc(S(=O)(=O)NC2CCCCC2)cc1', 'inactive'),
  ('CSc1ccc(Oc2ccc(S(N)(=O)=O)cc2CN(C)C)cc1C', 'inactive'),
  ('CCCCC(CC)C(=O)OCCOCCOCCOCCOC(=O)C(CC)CCCC (stereo unspecified)', 'inactive'),
  ('CC(C)(O)c1ccccc1CC[C@@H](SCC1(CC(=O)O)CC1)c1cccc(/C=C/c2ccc3ccc(Cl)cc3n2)c1', 'inactive'),
  ('COc1cc2c(cc1OC)-c1cc(=Nc3c(C)cc(C)cc3C)n(C)c(=O)n1CC2', 'inactive'),
  ('C1COCO1', 'inactive'),
  ('C/C=C(\C)C(=O)OCCC(C)CCC=C(C)C (stereo unspecified)', 'inactive'),
  ('COCCOC', 'inactive'),
  ('COC(=O)Nc1nc2ccc(C(=O)c3cccs3)cc2[nH]1', 'inactive'),
  ('Fc1c(F)c(F)c(Br)c(F)c1F', 'inactive'),
  ('CC(=O)[C@H]1CC[C@H]2[C@@H]3C[C@H](C)C4=CC(=O)CC[C@]4(C)[C@H]3[C@@H](O)C[C@]12C', 'inactive'),
  ('Nc1nccs1', 'inactive'),
  ('COc1ccc([C@@H]2Sc3ccccc3NC(=O)[C@@H]2O)cc1', 'inactive'),
  ('CCCCCCCCCCOS(=O)(=O)O', 'inactive'),
  ('CCC(=O)OC/C=C/c1ccccc1', 'inactive');
